Each recorded value in this set is attributed to paper doi:10.1101/2024.08.19.608619.

# tested.system: SARS-CoV-2 nsp3-mac1 (Severe acute respiratory syndrome coronavirus 2, UniProt P0DTD1)
# method.description: biochemical
# Type: biochemical
# conditions.used: SARS-CoV-2 nsp3 macrodomain TR-FRET single point, concentration 50.0 uM
recorded.metric: perc_inhibition_mean (%)
The figure you give is taken to be in %; do not add the unit.

Consider the following illustrative entries.
compound: O=C(Nc1cnc2[nH]ncc2c1)c1ccc(Oc2cccc(Br)c2)nc1 [ASAP-0000023]
tested.system: SARS-CoV-2 nsp3-mac1 (Severe acute respiratory syndrome coronavirus 2, UniProt P0DTD1)
measurement.unit: %
perc_inhibition_mean: -0.183
--
compound: COc1cc(OC)cc(C(=O)N(CCC(=O)N2CCNCC2)Cc2cccc(Cl)c2)c1 [ASAP-0000111]
tested.system: SARS-CoV-2 nsp3-mac1 (Severe acute respiratory syndrome coronavirus 2, UniProt P0DTD1)
measurement.unit: %
perc_inhibition_mean: -4.529

Input O=C(NCc1nc(-c2ccco2)n[nH]1)c1cc(=O)n2ncnc2[nH]1 [ASAP-0000128] . Output perc_inhibition_mean: -2.599

Lab book: perc_inhibition_mean of CSc1cccc(NC(=O)c2ncnc3[nH]ccc23)c1 [ASAP-0000192] noted as -4.669

Measured perc_inhibition_mean, COc1cccc2cc(CNc3cnc4[nH]ncc4c3)oc12 [ASAP-0000028] : -4.293

---

# System: CYP
# method.description: CYP inhibition
# Assay type: in vitro ADME
# conditions.used: isoform 2D6; In vitro CYP inhibition pooled
recorded.metric: IC50 (µM)
I only need the number, in µM, no unit after it.

A selection of reference data follows.
molecule: Cn1ncc(-c2cc3c(N[C@@H](c4ccc5c(n4)OCCO5)C(C)(C)C)ncnc3[nH]2)c1C#N [ASAP-0011221]
measurement.unit: µM
IC50: 20.5

molecule: CNCc1cc(-c2cc3c(N[C@@H](c4ccc5c(c4)S(=O)(=O)CCC5)C(C)C)ncnc3[nH]2)co1 [ASAP-0011176]
measurement.unit: µM
IC50: 9.03

molecule: CC(C)[C@@H](Nc1ncnc2[nH]c(-c3cnn(C)c3C#N)cc12)c1ccc2c(n1)OCCO2 [ASAP-0010716]
measurement.unit: µM
IC50: 22.7

Now, please, on to the next molecule.
molecule CC(C)[C@H](Nc1ncnc2[nH]c(-c3cnn(C)c3C#N)cc12)c1ccc2c(n1)OCCO2 [ASAP-0010715] , IC50 observed: 27.7

---

# method.description: Permeability Papp (AB) MDR1/MDCKII
# conditions.used: In vitro MDR1-MDCKII permeability, A to B, mean
Class boundaries, taken from values of papp_a_to_b_mean, are as follows: low end = under 2 ×10⁻⁶ cm/s, middle = from 2 ×10⁻⁶ cm/s up to 9 ×10⁻⁶ cm/s, high end = 9 ×10⁻⁶ cm/s and over

molecule: CC(C)[C@H](Nc1ncnc2[nH]cc(C(=O)NC3CC3)c12)c1ccc2c(c1)S(=O)(=O)CCC2 (racemic)
label.class: middle

Input: Hey, which category is CC(C)[C@H](Nc1ncnc2[nH]c(-c3cnn(C)c3C#N)cc12)c1ccc2c(c1)NC(=O)CO2 (racemic) [ASAP-0008576] in, do you know?
Output: middle

Input: Categorize the following entry: CC(C)[C@@H](Nc1ncnc2[nH]c(-c3cnn(CC(N)=O)c3)cc12)c1ccc2c(n1)OCCO2
Output: middle

Input: Which bin, given its papp_a_to_b_mean, does Cc1nn(C)cc1-c1cc2c(N[C@H](c3ccc4c(c3)S(=O)(=O)CCC4)C(C)C)ncnc2[nH]1 (single isomer, unassigned) occupy?
Output: middle

Input: Looking at CC(C)[C@H](Nc1ncnc2[nH]c(-c3cnn(C)c3C#N)cc12)c1ccc2c(n1)NC(=O)CO2 (single isomer, unassigned) , which class would you pick?
Output: high end

Input: Category of CNCc1cc(-c2cc3c(N[C@@H](c4ccc5c(c4)S(=O)(=O)CCC5)C(C)C)ncnc3[nH]2)co1 [ASAP-0011176] :
Output: middle

Input: Band for the recorded papp_a_to_b_mean of CNC(=O)c1c[nH]c2ncnc(N[C@@H](c3ccc4c(c3)OCCO4)C(C)C)c12 ?
Output: high end

Input: Please let me know in which category the item CC(C)[C@@H](Nc1ncnc2[nH]c(-c3cnn(C)c3C#N)cc12)c1ccc2c(n1)NC(=O)CO2 [ASAP-0008644] belongs.
Output: high end

Input: Which bin should I file CC(C)[C@@H](Nc1ncnc2[nH]c(-c3cnn(C)c3)cc12)c1ccc2c(c1)S(=O)(=O)CCC2 under?
Output: low end

Input: Which of the defined bands does the recorded papp_a_to_b_mean of CC(C)[C@H](Nc1ncnc2[nH]c(-c3cnn(CC(N)=O)c3)cc12)c1ccc2c(c1)OCCO2 (single isomer, unassigned) sit within?
Output: low end

---

# System: MDR1
# method.description: Permeability Papp (AB) MDR1/MDCKII
# conditions.used: dog, MDCK-MDR1, with Verapamil, papp_a_to_b_inhibitor_mean, MDR1-MDCKII, A to B, with inhibitor Verapamil
recorded.metric: Papp A→B (nm/s)
Return type: number; implicit unit nm/s.

Short answer for Cc1nn(C)cc1-c1cc2c(NC(c3ccc4c(c3)S(=O)(=O)CCC4)C(C)C)ncnc2[nH]1 (stereo not shown) : Papp A→B was 2.16

---

Overview of recorded log10 of t_half for various molecules
# method.description: Hepatic microsomal stability, MLM
# Type: in vitro ADME
# conditions.used: In vitro mouse liver microsomal stability
# log10 transformed; quantity=t_half; unit=min

log10 of t_half in this record for CC(C)[C@H](Nc1ncnc2[nH]c(-c3cnn(C)c3)cc12)c1ccc2c(c1)S(=O)(=O)CCC2 (single isomer, unassigned) : 0.81

Reported log10 of t_half ( COc1ccc([C@H](Cc2nnn[nH]2)NC(=O)c2ncnc3[nH]ccc23)cc1 ) = 2.31

Form: molecule = CC(C)[C@H](Nc1ncnc2[nH]ccc12)c1ccc2c(c1)NC(=O)CO2 ; log10 of t_half = 1.65

// log10 of t_half value for Cc1nn(C)cc1-c1cc2c(NC(c3ccc4c(c3)S(=O)(=O)CCC4)C(C)C)ncnc2[nH]1 (stereo not shown) : 0.92

For reference, reported log10 of t_half for CNC(=O)c1cc2c(N[C@@H](c3ccc4c(c3)S(=O)(=O)CCC4)C(C)C)ncnc2[nH]1 (single isomer, unassigned) [ASAP-0012346] stands at 1.85

Note to self: log10 of t_half recorded for CC(C)[C@H](Nc1ncnc2[nH]c(-c3cnn(C)c3C#N)cc12)c1ccc2c(c1)OCCO2 was 0.81

Looking up O=C(Nc1ccccc1)Nc1ccc(C(=O)NC2c3cccc(O)c3CC2C(=O)O)cc1 (stereo not shown) , I see its log10 of t_half listed as 3.03

---

# method.description: Hepatic microsomal stability, HLM
# Type: in vitro ADME, human
# conditions.used: In vitro human liver microsomal stability
recorded.metric: clint (µL/min/mg)
# output: bare number, implied unit µL/min/mg

Here is how some molecules turned out for clint.
molecule: CC(C)[C@H](Nc1ncnc2[nH]c(-c3cnn(CC(N)=O)c3)cc12)c1ccc2c(c1)OCCO2 [ASAP-0008449]
clint (µL/min/mg): 47.0
--
molecule: Cc1nn(C)cc1-c1cc2c(N[C@H](c3ccc4c(c3)S(=O)(=O)CCC4)C(C)C)ncnc2[nH]1 (single isomer, unassigned)
clint (µL/min/mg): 251.0

Kindly note the recorded clint for COc1ccc([C@@H](Cc2nnn[nH]2)NC(=O)c2ncnc3[nH]ccc23)cc1 , which is 5.0

Record summary for CC(C)[C@H](Nc1ncnc2[nH]c(-c3cnn(C)c3C#N)cc12)c1ccc2c(c1)S(=O)(=O)CCC2 (single isomer, unassigned) : reported clint = 935.0

// field: clint; key: CC(C)[C@@H](Nc1ncnc2[nH]ccc12)c1ccc2c(c1)S(=O)(=O)CCC2 (single isomer, unassigned) ; value = 21.0

clint reading for CC(C)[C@@H](Nc1ncnc2[nH]c(-c3cnn(CC(=O)N(C)C)c3)cc12)c1ccc2c(c1)S(=O)(=O)CCC2 [ASAP-0013747] : 297.0

---

# method.description: In vitro mouse hepatocyte stability
# Format: in vitro ADME
Please note: t_half exactly at 8 min is not met. Only values below 8 min get met.

given.smiles: CC(C)[C@H](Nc1ncnc2[nH]ccc12)c1ccc2c(c1)S(=O)(=O)CCC2
label.class: met

given.smiles: COc1ccc([C@H](Cc2nnn[nH]2)NC(=O)c2ncnc3[nH]ccc23)cc1
label.class: not met

given.smiles: CC(C)[C@@H](Nc1ncnc2[nH]c(-c3cnn(C)c3C#N)cc12)c1ccc2c(n1)OCCO2
label.class: met

given.smiles: CNCc1cc(-c2cc3c(N[C@@H](c4ccc5c(c4)S(=O)(=O)CCC5)C(C)C)ncnc3[nH]2)co1
label.class: not met

given.smiles: C[C@H](C(=O)O)[C@@H](NC(=O)c1ncnc2[nH]ccc12)c1ccc(Br)cc1
label.class: not met

given.smiles: Cn1ncc(-c2cc3c(N[C@@H](c4ccc5c(n4)OCCO5)C(C)(C)C)ncnc3[nH]2)c1C#N
label.class: met

Input: Here's an entry: CC(C)[C@H](Nc1ncnc2[nH]c(-c3cnn(C)c3C#N)cc12)c1ccc2c(n1)OCCO2 . Is its t_half below 8 min?
Output: met
